# targetUnderTest: UniProt:Q92769
# Sequence (Q92769 whole entry): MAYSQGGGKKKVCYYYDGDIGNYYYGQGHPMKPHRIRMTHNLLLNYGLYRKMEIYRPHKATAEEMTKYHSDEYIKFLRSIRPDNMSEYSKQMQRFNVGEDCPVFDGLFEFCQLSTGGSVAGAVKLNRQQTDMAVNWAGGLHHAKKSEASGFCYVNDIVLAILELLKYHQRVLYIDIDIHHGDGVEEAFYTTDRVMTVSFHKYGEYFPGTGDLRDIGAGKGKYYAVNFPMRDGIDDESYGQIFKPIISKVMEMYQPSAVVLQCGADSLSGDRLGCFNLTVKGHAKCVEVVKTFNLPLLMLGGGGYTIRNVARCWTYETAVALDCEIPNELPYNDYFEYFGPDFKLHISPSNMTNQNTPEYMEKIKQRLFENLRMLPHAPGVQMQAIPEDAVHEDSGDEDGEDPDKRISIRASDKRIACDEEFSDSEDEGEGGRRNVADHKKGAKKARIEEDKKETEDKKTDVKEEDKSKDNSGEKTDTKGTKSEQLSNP
# experimentalDetails: Inhibition of full-length recombinant human C-terminal GST tagged HDAC2 expressed in Sf9 insect cells using aminoluciferin peptide substrate at 100 nM preincubated for 3 hrs followed by substrate addition and measured after 30 mins by HDAC-Glo I/II chemiluminescence assay
# conditionParameters: time 3.5 hrs
inhibition values, listed per item
Write the answer as a number in %, unit excluded.

Request: Report inhibition for Nc1ccc(-c2cccs2)cc1NC(=O)c1ccc(-c2cn(CCCCCCCC(=O)O)nn2)s1 please.
Result: 14

---
Request: Report inhibition for Nc1ccc(-c2cccs2)cc1NC(=O)CCc1cn(Cc2nc3ccccc3[nH]2)nn1 please.
Result: 19

Request: Also, Nc1ccc(-c2cccs2)cc1NC(=O)c1ccc(-c2cn(Cc3ccc(Oc4ccccc4)cc3)nn2)s1 please.
Result: 0

Request: Also, Nc1ccc(-c2cccs2)cc1NC(=O)c1cccc(-c2cn(CCC3CCCCC3)nn2)c1 please.
Result: 0

Request: Also, Nc1ccc(-c2ccccc2)cc1NC(=O)CCc1cn(CCC2CCCC2)nn1 please.
Result: 0

The measurements presented in this section are drawn from ChEMBL document CHEMBL5390237.
